# MEASURED ON: PI3Kγ (Homo sapiens)
# Sequence (P48736 whole entry): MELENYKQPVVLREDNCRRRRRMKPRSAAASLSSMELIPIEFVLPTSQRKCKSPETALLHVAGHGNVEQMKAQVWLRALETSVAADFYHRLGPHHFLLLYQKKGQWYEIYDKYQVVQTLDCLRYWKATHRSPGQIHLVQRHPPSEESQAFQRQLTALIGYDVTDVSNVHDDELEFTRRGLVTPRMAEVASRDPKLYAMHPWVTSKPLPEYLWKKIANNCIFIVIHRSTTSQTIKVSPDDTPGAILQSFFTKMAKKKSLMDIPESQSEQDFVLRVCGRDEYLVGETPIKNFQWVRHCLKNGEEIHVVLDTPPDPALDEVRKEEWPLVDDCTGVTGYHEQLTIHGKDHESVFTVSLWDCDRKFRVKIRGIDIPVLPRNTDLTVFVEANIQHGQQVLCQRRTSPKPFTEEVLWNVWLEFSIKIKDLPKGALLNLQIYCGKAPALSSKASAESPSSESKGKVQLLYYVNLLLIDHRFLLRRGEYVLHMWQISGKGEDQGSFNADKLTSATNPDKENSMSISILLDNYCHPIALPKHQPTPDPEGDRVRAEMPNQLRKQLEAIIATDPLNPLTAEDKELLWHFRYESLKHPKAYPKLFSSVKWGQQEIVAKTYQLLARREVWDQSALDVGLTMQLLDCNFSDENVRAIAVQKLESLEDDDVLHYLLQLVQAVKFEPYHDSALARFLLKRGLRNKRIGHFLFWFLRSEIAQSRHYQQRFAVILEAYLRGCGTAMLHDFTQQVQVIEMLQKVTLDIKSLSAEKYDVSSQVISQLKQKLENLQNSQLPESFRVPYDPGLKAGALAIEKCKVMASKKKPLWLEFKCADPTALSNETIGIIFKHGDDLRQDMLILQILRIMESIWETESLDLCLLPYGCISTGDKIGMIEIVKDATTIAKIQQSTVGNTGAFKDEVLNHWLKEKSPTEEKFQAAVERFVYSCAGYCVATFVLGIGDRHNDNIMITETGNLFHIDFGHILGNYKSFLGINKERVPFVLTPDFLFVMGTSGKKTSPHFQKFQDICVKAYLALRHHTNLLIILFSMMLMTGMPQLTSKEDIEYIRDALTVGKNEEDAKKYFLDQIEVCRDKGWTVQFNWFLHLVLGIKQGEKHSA
PARAMETER: IC50 (µM)
Give just the numeric value; µM need not be written.

Output measured IC50 for this item: Cc1nc(NC(=O)[C@@H](N)C(C)C)sc1-c1cnc(Cl)c(NS(=O)(=O)c2ccccc2)c1
0.125

====

pIC50: −log10 of the molar value.
PARAMETER: pIC50

Tell me pIC50 of Cc1nc(NC(=O)[C@@H](N)C(C)C)sc1-c1cnc(Cl)c(NS(=O)(=O)c2ccccc2)c1 when tested on PIK3C2B (Homo sapiens, UniProt O00750).
Sequence (O00750 whole entry): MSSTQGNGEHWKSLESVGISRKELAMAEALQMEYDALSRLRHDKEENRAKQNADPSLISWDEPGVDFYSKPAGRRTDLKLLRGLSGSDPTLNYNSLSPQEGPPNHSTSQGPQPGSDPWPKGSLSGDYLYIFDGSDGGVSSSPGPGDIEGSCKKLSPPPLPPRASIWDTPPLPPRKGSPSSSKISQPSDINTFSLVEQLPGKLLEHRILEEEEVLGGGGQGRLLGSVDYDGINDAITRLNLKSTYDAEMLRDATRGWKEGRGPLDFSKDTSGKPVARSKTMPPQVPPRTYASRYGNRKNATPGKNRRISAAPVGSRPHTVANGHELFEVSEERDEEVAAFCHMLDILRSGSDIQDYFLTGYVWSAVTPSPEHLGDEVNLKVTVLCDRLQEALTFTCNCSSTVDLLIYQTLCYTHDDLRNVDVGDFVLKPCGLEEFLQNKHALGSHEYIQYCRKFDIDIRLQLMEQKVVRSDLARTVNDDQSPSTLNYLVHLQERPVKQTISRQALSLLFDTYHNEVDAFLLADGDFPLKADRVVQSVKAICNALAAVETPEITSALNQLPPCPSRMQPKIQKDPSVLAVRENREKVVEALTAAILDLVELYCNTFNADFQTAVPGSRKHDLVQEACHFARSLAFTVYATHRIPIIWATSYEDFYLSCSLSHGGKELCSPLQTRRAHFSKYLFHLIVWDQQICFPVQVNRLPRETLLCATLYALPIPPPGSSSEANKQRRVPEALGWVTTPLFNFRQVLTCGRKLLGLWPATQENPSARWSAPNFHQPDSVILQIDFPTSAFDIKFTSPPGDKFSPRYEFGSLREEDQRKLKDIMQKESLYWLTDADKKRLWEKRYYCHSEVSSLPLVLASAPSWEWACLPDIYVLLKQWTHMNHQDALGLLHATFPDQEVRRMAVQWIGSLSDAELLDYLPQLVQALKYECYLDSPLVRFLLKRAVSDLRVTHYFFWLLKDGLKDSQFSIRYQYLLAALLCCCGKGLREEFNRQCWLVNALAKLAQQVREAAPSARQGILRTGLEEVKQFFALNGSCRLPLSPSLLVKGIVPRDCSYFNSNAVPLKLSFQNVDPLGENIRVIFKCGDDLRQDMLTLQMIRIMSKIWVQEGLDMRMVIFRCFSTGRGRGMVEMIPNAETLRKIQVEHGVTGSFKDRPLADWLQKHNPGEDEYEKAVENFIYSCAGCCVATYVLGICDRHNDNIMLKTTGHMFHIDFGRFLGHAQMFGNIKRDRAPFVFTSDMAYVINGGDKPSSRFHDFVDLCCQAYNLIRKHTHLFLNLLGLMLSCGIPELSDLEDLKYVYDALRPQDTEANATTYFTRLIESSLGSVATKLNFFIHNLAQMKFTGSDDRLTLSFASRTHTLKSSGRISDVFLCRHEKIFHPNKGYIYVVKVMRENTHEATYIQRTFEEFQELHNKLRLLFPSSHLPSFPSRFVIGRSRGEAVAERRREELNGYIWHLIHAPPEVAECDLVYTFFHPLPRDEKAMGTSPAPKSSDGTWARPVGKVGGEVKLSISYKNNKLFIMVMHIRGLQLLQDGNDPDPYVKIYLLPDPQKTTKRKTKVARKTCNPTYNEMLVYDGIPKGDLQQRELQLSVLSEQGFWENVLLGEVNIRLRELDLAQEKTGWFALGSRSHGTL
< 5.00

====

# MEASURED ON: PI4KA (Homo sapiens, UniProt P42356)
# Sequence (P42356 whole entry): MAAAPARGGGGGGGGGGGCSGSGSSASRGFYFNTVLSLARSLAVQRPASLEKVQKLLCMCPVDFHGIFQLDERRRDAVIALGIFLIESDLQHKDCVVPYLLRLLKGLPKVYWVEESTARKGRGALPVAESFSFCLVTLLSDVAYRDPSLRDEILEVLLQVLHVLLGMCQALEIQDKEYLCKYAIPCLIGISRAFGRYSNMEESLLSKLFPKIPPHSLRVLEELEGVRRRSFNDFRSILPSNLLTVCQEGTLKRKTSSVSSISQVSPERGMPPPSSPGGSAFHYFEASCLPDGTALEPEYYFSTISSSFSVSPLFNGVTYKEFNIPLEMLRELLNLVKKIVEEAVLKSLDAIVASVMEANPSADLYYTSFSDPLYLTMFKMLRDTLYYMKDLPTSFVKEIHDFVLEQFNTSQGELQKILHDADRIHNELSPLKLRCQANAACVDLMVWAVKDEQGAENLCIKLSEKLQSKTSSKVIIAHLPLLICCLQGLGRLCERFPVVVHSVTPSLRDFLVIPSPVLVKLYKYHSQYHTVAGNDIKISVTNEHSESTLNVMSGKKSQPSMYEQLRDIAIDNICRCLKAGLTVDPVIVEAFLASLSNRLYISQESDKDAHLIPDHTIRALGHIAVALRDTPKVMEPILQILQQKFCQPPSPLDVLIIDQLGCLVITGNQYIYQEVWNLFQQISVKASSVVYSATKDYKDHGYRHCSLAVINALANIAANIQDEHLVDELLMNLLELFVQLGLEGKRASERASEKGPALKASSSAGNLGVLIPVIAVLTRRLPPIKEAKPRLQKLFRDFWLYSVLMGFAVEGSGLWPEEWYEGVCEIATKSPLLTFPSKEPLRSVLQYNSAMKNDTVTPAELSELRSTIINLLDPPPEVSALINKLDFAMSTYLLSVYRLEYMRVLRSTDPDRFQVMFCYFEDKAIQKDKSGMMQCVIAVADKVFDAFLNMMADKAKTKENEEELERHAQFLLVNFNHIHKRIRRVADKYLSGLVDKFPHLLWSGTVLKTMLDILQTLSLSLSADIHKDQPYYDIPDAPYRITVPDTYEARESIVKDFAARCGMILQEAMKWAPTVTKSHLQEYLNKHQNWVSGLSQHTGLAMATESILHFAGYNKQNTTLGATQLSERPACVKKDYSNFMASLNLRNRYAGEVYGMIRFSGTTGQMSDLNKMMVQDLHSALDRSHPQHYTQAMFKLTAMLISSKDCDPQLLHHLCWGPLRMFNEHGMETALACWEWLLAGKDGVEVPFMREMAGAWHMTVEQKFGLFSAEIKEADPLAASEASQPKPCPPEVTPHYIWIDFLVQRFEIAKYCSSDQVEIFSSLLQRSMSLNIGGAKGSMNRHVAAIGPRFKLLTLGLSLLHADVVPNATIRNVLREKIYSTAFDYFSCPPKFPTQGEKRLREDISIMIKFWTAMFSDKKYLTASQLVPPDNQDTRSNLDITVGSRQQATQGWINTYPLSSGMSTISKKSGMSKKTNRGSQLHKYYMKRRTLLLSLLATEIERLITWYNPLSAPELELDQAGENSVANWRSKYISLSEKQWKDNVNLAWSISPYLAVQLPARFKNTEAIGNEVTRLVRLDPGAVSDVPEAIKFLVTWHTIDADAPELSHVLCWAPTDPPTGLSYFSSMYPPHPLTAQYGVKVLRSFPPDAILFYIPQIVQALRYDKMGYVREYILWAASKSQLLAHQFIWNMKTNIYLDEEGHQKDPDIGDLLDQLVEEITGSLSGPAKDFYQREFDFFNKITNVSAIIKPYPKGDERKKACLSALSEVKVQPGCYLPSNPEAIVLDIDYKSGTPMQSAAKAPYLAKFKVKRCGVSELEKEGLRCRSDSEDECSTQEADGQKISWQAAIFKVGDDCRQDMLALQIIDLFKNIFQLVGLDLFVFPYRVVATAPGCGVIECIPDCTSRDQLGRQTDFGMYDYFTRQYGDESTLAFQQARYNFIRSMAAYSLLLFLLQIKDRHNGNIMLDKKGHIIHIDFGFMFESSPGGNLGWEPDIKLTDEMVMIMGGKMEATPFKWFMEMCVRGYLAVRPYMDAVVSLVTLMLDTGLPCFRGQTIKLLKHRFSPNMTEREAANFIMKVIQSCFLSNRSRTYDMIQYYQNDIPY
PARAMETER: IC50

Tell me IC50 of Cc1nc(NC(=O)[C@@H](N)C(C)C)sc1-c1cnc(Cl)c(NS(=O)(=O)c2ccccc2)c1 when tested on PI4KA (Homo sapiens, UniProt P42356).
> 10 µM
